- TARGET: NAD-dependent protein deacetylase sirtuin-1 (Homo sapiens)
- TEST_SUMMARY: Substrate activity at human N-terminal His-tagged SIRT1 (183 to 664 residues) expressed in Escherichia coli at 5 uM measured after 2 hrs in presence of NAD+ and trypsin by fluorescence assay
*1 amine or outer side, *2 acyl side, *3 side chain or, on linkers, in order; H or OH if unused. Where a SMILES comes first, the peptide text is derived from it. The star is where a group is joined. AMC = Cc1cc(=O)oc2cc(N*)ccc12; Suc = O=C(CCC(=O)[*:2])[*:1]
Please go through the items and note down their Activity.
Numbers only, in RFU.

# example entries with known answers
MOLECULE	RESULT_NUMBER
CC(=O)NCCCC[C@H](NC(=O)[C@H](CO)NC(=O)[C@H](Cc1ccccc1)NC(=O)[C@H](CC(=O)O)NC(C)=O)C(=O)Nc1ccc2c(C)cc(=O)oc2c1 (Ac-DFSK(Ac)-{AMC})	3.38
CC(=O)NCCCC[C@H](NC(=O)[C@H](CC(C)C)NC(=O)[C@H](CCCCN)NC(=O)[C@H](Cc1ccc(O)cc1)NC(C)=O)C(=O)Nc1ccc2c(C)cc(=O)oc2c1 (Ac-YKLK(Ac)-{AMC})	6.39

Answer with Activity of CC(=O)N[C@@H](CO)C(=O)N[C@@H](CC(C)C)C(=O)NCC(=O)N[C@@H](CCCCNC(=O)CCC(=O)O)C(=O)Nc1ccc2c(C)cc(=O)oc2c1 (Ac-SLGK(Suc)-{AMC}) measured for NAD-dependent protein deacetylase sirtuin-1 (Homo sapiens).
0.44
